These measurements were taken from patent US11661431B2.

target: TLR8 (Homo sapiens (Human)); assay: TLR8 human peripheral blood mononuclear cell (PBMC) cell-based assay (Compound A as agonist; TNFα and IL12p40 readout); conditions: human PBMCs, TLR8 agonist Compound A at 800 nM, 6 hours, antagonist potency; read-out: TLR-8 EC50
Sequence (Q9NR97 27-1041): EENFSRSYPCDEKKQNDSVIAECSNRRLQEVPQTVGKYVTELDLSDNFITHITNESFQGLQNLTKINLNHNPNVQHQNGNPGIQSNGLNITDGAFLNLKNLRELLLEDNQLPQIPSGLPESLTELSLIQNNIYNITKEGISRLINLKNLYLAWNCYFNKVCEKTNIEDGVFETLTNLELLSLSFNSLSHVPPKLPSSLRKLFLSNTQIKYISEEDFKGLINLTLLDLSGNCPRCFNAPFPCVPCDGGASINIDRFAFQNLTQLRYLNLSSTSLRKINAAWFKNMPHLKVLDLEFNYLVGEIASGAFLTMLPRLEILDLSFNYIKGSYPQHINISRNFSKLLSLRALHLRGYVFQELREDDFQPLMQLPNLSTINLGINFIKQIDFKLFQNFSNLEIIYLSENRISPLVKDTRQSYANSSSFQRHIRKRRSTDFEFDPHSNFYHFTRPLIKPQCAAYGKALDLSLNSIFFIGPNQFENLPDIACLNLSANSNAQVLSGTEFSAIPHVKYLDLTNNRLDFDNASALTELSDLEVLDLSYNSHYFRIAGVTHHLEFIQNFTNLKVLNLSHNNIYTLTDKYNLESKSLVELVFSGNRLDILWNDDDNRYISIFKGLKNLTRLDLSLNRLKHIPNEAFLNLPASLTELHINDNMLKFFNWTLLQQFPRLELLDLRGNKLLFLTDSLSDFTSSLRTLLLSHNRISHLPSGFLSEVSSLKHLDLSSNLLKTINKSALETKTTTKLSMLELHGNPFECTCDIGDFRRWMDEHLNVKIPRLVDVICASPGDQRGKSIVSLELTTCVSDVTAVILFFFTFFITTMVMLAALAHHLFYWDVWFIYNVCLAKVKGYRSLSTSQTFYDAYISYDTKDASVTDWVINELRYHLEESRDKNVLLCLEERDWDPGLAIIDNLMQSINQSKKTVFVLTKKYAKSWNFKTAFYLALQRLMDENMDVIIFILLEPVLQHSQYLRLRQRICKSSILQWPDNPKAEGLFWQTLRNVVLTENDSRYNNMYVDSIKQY
MEASURE_NAME: EC50 (nM)

{"MOLECULE": "Cc1cc(-c2[nH]c3sc(C(=O)N(C)C4CCN(CCO)CC4)cc3c2C(C)C)cn2ncnc12 [Example 5]", "UNITS_LABEL": "nM", "RESULT_NUMBER": 5.96}
{"MOLECULE": "Cc1c(C2CCNCC2)sc2[nH]c(-c3cn(C)c4ncccc34)c(C(C)C)c12 [Example 249]", "UNITS_LABEL": "nM", "RESULT_NUMBER": 3.02}
{"MOLECULE": "Cc1c(-c2[nH]c3sc([C@H]4C[C@@H]5CC[C@H]4CN5CCS(C)(=O)=O)c(C)c3c2C(C)C)cn2ncnc2c1C (single isomer, unassigned) [Example 214]", "UNITS_LABEL": "nM", "RESULT_NUMBER": 3.4}
{"MOLECULE": "Cc1c(-c2[nH]c3sc(C4CCC(C(=O)N5CCNCC5)CC4)c(C)c3c2C(C)C)cn2ncnc2c1C (stereo not shown) [Example 309]", "UNITS_LABEL": "nM", "RESULT_NUMBER": 8.07}
